ASSAY TEXT: in vitro
COND: human, Caco-2
Peptide text beside a SMILES is read from it.

- COMPOUND: "CC(C)C[C@H](NC(=O)[C@@H](N)Cc1ccc(O)cc1)C(=O)O [B, Tyr-Leu] (H-Tyr-Leu-OH; N-terminus and C-terminus assumed)"
  Papp A→B at 60 min, 10 mM, ×10⁻⁶ cm/s: 0.596

---

ASSAY TEXT: Permeability coefficient (Papp) across Caco-2 cell monolayers in Ussing Chamber
COND: human, Caco-2
Peptide text beside a SMILES is read from it.
Reported Papp A→B at 60 min, 10 mM values are given for each entry in this list.
PROPERTY MEASURED: Papp A→B at 60 min, 10 mM (×10⁻⁶ cm/s)

- COMPOUND: "N=C(N)NCCC[C@H](NC(=O)[C@@H](N)Cc1ccc(O)cc1)C(=O)O [Peptide C, Tyr-Arg]"
  PROPERTY MEASURED: "Papp A→B at 60 min, 10 mM"
  MEASURED VALUE: 0.05
- COMPOUND: "N[C@@H](Cc1ccccc1)C(=O)N[C@@H](Cc1ccc(O)cc1)C(=O)O [G, Phe-Tyr] (H-Phe-Tyr-OH; N-terminus and C-terminus assumed)"
  PROPERTY MEASURED: "Papp A→B at 60 min, 10 mM"
  MEASURED VALUE: 0.006
